SYSTEM_TESTED: UniProt P35372
TEST_PROTOCOL: [35S]GTPγS μ-opioid receptor functional assay
Some compounds, each annotated with its measured pEC50.
pEC50 (log units): -log10 of the concentration in mol/L.

In the examples that follow, each entry is paired with its recorded pEC50.
Exercise: What measured pEC50 goes with COCCOCCOCC(=O)OC1=CC[C@@]2(O)[C@H]3Cc4ccc(OC)c5c4[C@@]2(CCN3C)C1O5 (stereo partly shown) [6-PEG oxycodone] ?
Solution: 6.41

Exercise: What measured pEC50 goes with COCCOCCOCC(=O)OC1=CCC2(OC(=O)COCCOCCOC)[C@H]3Cc4ccc(OC)c5c4[C@@]2(CCN3C)C1O5 (stereo partly shown) [6,14-bis-PEG oxycodone] ?
Solution: 6.28

Exercise: What measured pEC50 goes with COc1ccc2c3c1OC1C(OC(C)=O)=CC[C@@]4(O)[C@@H](C2)N(C)CC[C@]314 (stereo partly shown) [6-acetyl oxycodone] ?
Solution: 5.77

---
Exercise: What measured pEC50 goes with CCCCCCCCCCCC(=O)OC1=CC[C@@]2(O)[C@H]3Cc4ccc(OC)c5c4[C@@]2(CCN3C)C1O5 (stereo partly shown) [6-lauroyl oxycodone] ?
Solution: 6.00
